We begin with a simple list: items and their reported IC50.
- targetUnderTest: RORγ (Homo sapiens, UniProt P51449)
- Construct: expressed in transfected cells; host or cells: 293FT cells (Invitrogen), expression vector pFN26A (Promega)
- Sequence (P51449 269-508 limits assumed): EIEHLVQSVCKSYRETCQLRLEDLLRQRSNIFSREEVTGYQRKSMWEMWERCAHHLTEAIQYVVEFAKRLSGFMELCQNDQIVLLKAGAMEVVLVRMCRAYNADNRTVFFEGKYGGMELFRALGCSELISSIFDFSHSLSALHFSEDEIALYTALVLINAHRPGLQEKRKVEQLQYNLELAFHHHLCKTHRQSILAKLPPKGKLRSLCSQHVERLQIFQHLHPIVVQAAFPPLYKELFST
- assayProcedure: RORγ GAL4 reporter gene assay
- Assay type: cell-based
- settings: inhibition of RORγ activity, GAL4-RORγ-LBD luciferase reporter in 293FT cells, overnight incubation; read-out: mean pIC50 (converted)

Worked cases, IC50 given:
Per the record, CCN(C(=O)c1ccc(NC(=O)Cc2ccc(S(=O)(=O)NC3CC3)cc2)cc1F)c1ccccc1 has IC50 of ≤ 1000 nM

Recorded result, O=C(Cc1ccc(S(=O)(=O)CC2CC2)cc1)Nc1ccc(C(=O)N(c2cccnc2)C2CC2)cc1 , IC50: ≤ 100 nM

Further cases:
Kindly note the recorded IC50 for CCN(Cc1ccccc1)C(=O)c1ccc(NC(=O)Cc2ccc(S(=O)(=O)CC3CC3)cc2)cc1 , which is ≤ 100 nM

Lookup result for O=C(Cc1ccc(S(=O)(=O)CC2CC2)cc1)Nc1ccc(C(=O)N(CC(F)(F)F)c2ccccc2)cc1 ; measured IC50: ≤ 10 nM

Item: CC(C)(C)N(C(=O)c1ccc(NC(=O)Cc2ccc(S(=O)(=O)CC3CC3)nc2)c(F)c1)c1ccccc1 | IC50: ≤ 10 nM

Recorded IC50 (compound CC(C)(C)C1COc2ccccc2N1C(=O)c1ccc(NC(=O)Cc2ccc(S(=O)(=O)CC3CC3)cc2)cc1 (centres unmarked) ): ≤ 100 nM

Quick note, IC50 for O=C(Cc1ccc(S(=O)(=O)CC2CC2)cc1)Nc1ccc(C(=O)N2CCCC(c3ccccc3)C2)cc1 (centres unmarked) landed at ≤ 100 nM

The compound listed as CC(C)(C)N(Cc1ccccc1)C(=O)c1ccc(NC(=O)Cc2ccc(S(=O)(=O)CC3CC3)cc2)cc1 has a reported IC50 of ≤ 10 nM

Reported IC50 for CCOC(=O)C1CCCN(C(=O)c2ccc(NC(=O)Cc3ccc(S(=O)(=O)CC4CC4)cc3)cc2)C1 (centres unmarked) was ≤ 1000 nM

For reference, reported IC50 for CCN(C(=O)c1ccc(NC(=O)Cc2ccc(S(=O)(=O)NC3CC3)cc2)cc1)c1nnc(C)s1 stands at ≤ 1000 nM

Notebook: CCN(C(=O)c1ccc(NC(=O)Cc2ccc(S(=O)(=O)NC3CC3)cc2)cc1)c1cccc(C)c1 , IC50 read as ≤ 10 nM

The compound listed as C[C@@H](c1ccccc1)N(C)C(=O)c1ccc(NC(=O)Cc2ccc(S(=O)(=O)CC3CC3)cc2)cc1 shows IC50 equal to ≤ 100 nM

Consider CCN(C(=O)c1ccc(NC(=O)Cc2ccc(S(=O)(=O)NC3CC3)cc2)cc1Cl)c1ccccc1 . Its measured IC50 is ≤ 1000 nM

Please fill in: IC50 reported for CCN(C(=O)c1ccc(NC(=O)Cc2ccc(S(=O)(=O)CC3CC3)cc2)cc1OC)c1ccccc1 = ≤ 100 nM

Value of IC50 reported for the compound CCCN(C)C(=O)c1ccc(NC(=O)Cc2ccc(S(=O)(=O)CC3CC3)cc2)cc1 is ≤ 1000 nM

Measured IC50, O=C(Cc1ccc(S(=O)(=O)CC2CC2)cc1)Nc1ccc(C(=O)N[C@H](c2ccc(Cl)cc2)C(F)(F)F)cc1 : ≤ 1000 nM

Record O=C(Cc1ccc(S(=O)(=O)CC2CC2)nc1)Nc1ccc(C(=O)N(CC(F)(F)F)c2ccccc2)cc1 . Reported IC50: ≤ 10 nM

Per the record, CCCN(C(=O)c1ccc(NC(=O)Cc2ccc(S(=O)(=O)NC3CC3)cc2)cc1)c1cc(C)on1 has IC50 of ≤ 10 nM

For this compound ( Cc1ccc(N(C(=O)c2ccc(NC(=O)Cc3ccc(S(=O)(=O)NC4CC4)cc3)cc2)C(C)(C)CO)cc1 ), measured IC50 is ≤ 100 nM
